Tested on: Saos2pcDNA#3#2 cells
Assay: Growth inhibition in vector control Saos2 cells
Type: cell-based, human
Conditions: read-out: concentration of SN-38 causing 50% growth inhibition (IC50); imatinib 3.0 μM
parameterMeasured: pIC50
Please keep in mind that pIC50 is minus log10 of the molar concentration; only the number is needed.

**Query** For the molecule CCc1c2c(nc3ccc(O)cc13)-c1cc3c(c(=O)n1C2)COC(=O)[C@]3(O)CC [SN-38, 7-ethyl-10-hydroxycamptothecin] , report pIC50.
**Result** 8.43

---

System: Saos2BCRP#4 cells
Assay: cells
Conditions: Homo sapiens, SAOS-2, read-out: concentration of topotecan causing 50% growth inhibition, in presence of 1 μM imatinib
parameterMeasured: IC50 (nM)
Report as a plain number; the unit nM is understood.

**Query** For the compound CC[C@@]1(O)C(=O)OCc2c1cc1n(c2=O)Cc2cc3c(CN(C)C)c(O)ccc3nc2-1 , report IC50.
**Result** 35

---

Test system: Saos2BCRP#4 cells
Experiment: cells
Conditions: read-out: concentration of SN-38 causing 50% growth inhibition (IC50); imatinib 0.3 μM
parameterMeasured: IC50
Write the numeric value and follow it with the unit.

**Query** For the compound CCc1c2c(nc3ccc(O)cc13)-c1cc3c(c(=O)n1C2)COC(=O)[C@]3(O)CC [SN-38, 7-ethyl-10-hydroxycamptothecin] , report IC50.
**Result** 0.029 µM

---

Tested on: Saos2BCRPMUT#10 cells
Experiment: cells
Details: read-out: concentration of SN-38 causing 50% growth inhibition (IC50); imatinib 0.3 μM
parameterMeasured: IC50 (nM)
Report as a plain number; the unit nM is understood.

**Query** For the compound CCc1c2c(nc3ccc(O)cc13)-c1cc3c(c(=O)n1C2)COC(=O)[C@]3(O)CC [SN-38, 7-ethyl-10-hydroxycamptothecin] , report IC50.
**Result** 1.6

---

Test system: Saos2BCRPMUT#10 cells
Assay: cells
Conditions: read-out: concentration of SN-38 causing 50% growth inhibition (IC50); imatinib 1.0 μM
parameterMeasured: IC50 (nM)
Report as a plain number; the unit nM is understood.

**Query** For the compound CCc1c2c(nc3ccc(O)cc13)-c1cc3c(c(=O)n1C2)COC(=O)[C@]3(O)CC [SN-38, 7-ethyl-10-hydroxycamptothecin] , report IC50.
**Result** 1.7

---

Test system: Saos2BCRPMUT#10 cells
Test: cells
Details: Homo sapiens, SAOS-2, read-out: IC50 concentration of topotecan, Saos2Mut#10 cells
parameterMeasured: IC50 (nM)
Report as a plain number; the unit nM is understood.

**Query** For the compound CC[C@@]1(O)C(=O)OCc2c1cc1n(c2=O)Cc2cc3c(CN(C)C)c(O)ccc3nc2-1 [topotecan] , report IC50.
**Result** 9

---

Test system: Saos2pcDNA#3#2 cells
Assay: Growth inhibition in vector control Saos2 cells
Type: cell-based, human
Settings: Homo sapiens, SAOS-2, Saos2pcDNA cells; read-out: IC50 concentration of topotecan
parameterMeasured: IC50 (nM)
Report as a plain number; the unit nM is understood.

**Query** For the compound CC[C@@]1(O)C(=O)OCc2c1cc1n(c2=O)Cc2cc3c(CN(C)C)c(O)ccc3nc2-1 , report IC50.
**Result** 16
